Data origin, for the record: ChEMBL document CHEMBL1159093

# Assay method text: Metabolic stability in rat liver microsomes
# Assay type: ADME, Microsome
# Settings: read-out: Stability
Measurement kind: microsomal CLint (µL/min/mg)
Give your result in µL/min/mg as a bare value.

Input line: For "CC(=O)N1CCN(C[C@@H](C)NC(=O)c2cc3c(-c4ccccc4)nn(C)c3s2)CC1" , write its microsomal CLint.
Output line: 43.7

---

# Measured target: P2X purinoceptor 2 (Homo sapiens)
# Sequence (Q9UBL9 whole entry): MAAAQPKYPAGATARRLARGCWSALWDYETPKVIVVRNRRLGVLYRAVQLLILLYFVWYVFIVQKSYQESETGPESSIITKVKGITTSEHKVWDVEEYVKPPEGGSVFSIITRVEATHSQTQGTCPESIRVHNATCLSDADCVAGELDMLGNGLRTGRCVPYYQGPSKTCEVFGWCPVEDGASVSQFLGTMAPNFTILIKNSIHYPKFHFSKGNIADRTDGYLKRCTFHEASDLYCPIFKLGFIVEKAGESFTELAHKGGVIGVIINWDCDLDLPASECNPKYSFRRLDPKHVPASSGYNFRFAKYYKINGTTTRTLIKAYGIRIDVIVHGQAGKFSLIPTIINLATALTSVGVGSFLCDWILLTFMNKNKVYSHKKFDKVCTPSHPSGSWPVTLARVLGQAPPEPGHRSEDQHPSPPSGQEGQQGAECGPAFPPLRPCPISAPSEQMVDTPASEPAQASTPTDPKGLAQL
# Assay method text: Antagonist activity at P2X2 receptor
Below, each entry is listed alongside its reported IC50.

• CCCc1nc(-c2ccccc2)oc1C(=O)NC(C)CN1CCN(c2ncccn2)CC1 (configuration not stated) = > 10 µM

# context switch: different molecule, same IC50
Input line: For "CC(=O)N1CCN(C[C@@H](C)NC(=O)c2cc3c(-c4ccccc4)nn(C)c3s2)CC1" , write its IC50.
Output line: > 10 µM

---

# Measured target: P2X purinoceptor 4 (Homo sapiens)
# Sequence (Q99571 whole entry): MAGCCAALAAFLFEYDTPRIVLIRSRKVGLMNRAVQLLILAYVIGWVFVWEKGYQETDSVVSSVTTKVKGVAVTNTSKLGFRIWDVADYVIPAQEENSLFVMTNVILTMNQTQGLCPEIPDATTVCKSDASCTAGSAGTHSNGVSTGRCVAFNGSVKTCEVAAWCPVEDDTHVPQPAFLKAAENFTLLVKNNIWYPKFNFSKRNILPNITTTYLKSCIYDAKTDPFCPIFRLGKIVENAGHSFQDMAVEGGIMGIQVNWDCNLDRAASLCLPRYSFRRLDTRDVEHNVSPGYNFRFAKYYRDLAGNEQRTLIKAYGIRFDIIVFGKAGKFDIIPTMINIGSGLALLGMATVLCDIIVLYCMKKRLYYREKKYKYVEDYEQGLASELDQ
# Assay method text: Antagonist activity at P2X4 receptor
Below, each entry is listed alongside its reported IC50.

• CC(=O)N1CCN(C[C@@H](C)NC(=O)c2cc3c(-c4ccccc4)nn(C)c3s2)CC1 = > 10 µM

Input line: Name the recorded IC50 of CCCc1nc(-c2ccccc2)oc1C(=O)NC(C)CN1CCN(c2ncccn2)CC1 (configuration not stated) , assay system P2X purinoceptor 4 (Homo sapiens).
Output line: > 10 µM

---

Below, each entry is listed alongside its reported pIC50.
# Measured target: P2X purinoceptor 6 (Homo sapiens)
# Sequence (O15547 whole entry): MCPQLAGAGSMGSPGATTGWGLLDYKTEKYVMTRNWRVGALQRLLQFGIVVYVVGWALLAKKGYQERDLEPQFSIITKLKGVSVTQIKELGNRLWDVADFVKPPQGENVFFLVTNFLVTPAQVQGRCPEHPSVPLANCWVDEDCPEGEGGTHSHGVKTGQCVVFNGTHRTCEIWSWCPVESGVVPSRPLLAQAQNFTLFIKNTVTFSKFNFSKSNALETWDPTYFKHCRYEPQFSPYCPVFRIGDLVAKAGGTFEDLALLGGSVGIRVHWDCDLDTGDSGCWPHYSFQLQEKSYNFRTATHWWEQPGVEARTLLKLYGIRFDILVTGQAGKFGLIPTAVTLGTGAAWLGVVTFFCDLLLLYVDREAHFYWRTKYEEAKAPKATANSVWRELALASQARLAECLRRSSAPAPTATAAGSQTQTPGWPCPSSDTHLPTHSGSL
# Assay method text: Antagonist activity at P2X6 receptor
pIC50: −log10 of the molar value.

- CC(=O)N1CCN(C[C@@H](C)NC(=O)c2cc3c(-c4ccccc4)nn(C)c3s2)CC1: < 5.00

Input line: For CCCc1nc(-c2ccccc2)oc1C(=O)NC(C)CN1CCN(c2ncccn2)CC1 (configuration not stated) , write its pIC50.
Output line: < 5.00

---

# Measured target: L-type calcium channel (verapamil binding site) (Rattus norvegicus, UniProt P22002+P27732+Q02485)
# Assay method text: Displacement of [3H]verapamil from verapamil binding site of L-type calcium channel in rat cerebral cortex at 10 uM after 120 mins by scintillation counting
# Type: tissue-based
# Settings: probe [3H]verapamil, read-out: Activity
Measurement kind: inhibition at 2 h, 10 µM

Input line: For "CC(=O)N1CCN(C[C@@H](C)NC(=O)c2cc3c(-c4ccccc4)nn(C)c3s2)CC1" , write its inhibition at 2 h, 10 µM.
Output line: > 50%

---

Below, each entry is listed alongside its reported IC50.
# Measured target: P2X purinoceptor 5 (Homo sapiens)
# Sequence (Q93086 whole entry): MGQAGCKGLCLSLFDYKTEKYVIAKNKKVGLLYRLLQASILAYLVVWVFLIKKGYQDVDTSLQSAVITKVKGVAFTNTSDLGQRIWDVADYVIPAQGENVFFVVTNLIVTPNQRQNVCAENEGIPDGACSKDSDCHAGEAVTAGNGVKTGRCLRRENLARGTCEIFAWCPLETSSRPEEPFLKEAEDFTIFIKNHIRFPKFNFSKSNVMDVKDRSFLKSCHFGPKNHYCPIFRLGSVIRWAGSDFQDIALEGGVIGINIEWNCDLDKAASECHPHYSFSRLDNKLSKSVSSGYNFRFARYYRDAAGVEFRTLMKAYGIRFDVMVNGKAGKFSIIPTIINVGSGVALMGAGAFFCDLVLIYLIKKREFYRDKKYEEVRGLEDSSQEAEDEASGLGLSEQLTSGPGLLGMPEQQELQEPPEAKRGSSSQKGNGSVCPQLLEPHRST
# Assay method text: Antagonist activity at P2X5 receptor

- CCCc1nc(-c2ccccc2)oc1C(=O)NC(C)CN1CCN(c2ncccn2)CC1 (configuration not stated): > 10 µM

# context switch: different compound, same IC50
Input line: For "CC(=O)N1CCN(C[C@@H](C)NC(=O)c2cc3c(-c4ccccc4)nn(C)c3s2)CC1" , write its IC50.
Output line: > 10 µM

---

Below, each entry is listed alongside its reported pIC50.
# Measured target: P2X2/P2X3 heterotrimeric receptor (Homo sapiens, UniProt P56373+Q9UBL9)
# Sequence (Q9UBL9 whole entry): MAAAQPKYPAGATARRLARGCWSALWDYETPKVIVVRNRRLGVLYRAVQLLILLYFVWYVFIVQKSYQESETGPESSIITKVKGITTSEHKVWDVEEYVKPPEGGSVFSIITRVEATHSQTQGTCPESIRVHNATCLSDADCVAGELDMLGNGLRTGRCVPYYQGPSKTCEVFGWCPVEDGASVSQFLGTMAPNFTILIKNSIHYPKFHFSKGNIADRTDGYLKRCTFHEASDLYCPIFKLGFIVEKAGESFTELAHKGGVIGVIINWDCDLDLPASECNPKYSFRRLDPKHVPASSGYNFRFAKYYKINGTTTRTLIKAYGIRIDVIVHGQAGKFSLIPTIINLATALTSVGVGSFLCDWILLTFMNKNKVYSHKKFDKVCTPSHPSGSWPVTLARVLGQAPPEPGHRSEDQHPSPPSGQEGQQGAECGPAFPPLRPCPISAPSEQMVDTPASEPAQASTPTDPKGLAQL
# Sequence (P56373 whole entry): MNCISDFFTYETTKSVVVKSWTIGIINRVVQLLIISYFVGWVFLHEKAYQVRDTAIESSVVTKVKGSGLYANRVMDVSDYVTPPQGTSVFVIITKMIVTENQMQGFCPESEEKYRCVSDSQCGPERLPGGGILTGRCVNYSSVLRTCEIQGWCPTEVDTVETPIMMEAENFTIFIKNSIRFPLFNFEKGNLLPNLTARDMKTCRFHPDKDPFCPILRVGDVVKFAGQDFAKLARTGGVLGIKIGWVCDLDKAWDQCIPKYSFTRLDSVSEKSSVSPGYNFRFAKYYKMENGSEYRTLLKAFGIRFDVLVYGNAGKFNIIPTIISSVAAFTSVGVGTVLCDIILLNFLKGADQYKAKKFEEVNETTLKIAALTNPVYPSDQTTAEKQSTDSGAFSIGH
# Assay method text: Antagonist activity at human P2X2/P2X3 receptor expressed in human 1321N1C cells
pIC50: −log10 of the molar value.

Here's what some known entries look like.
• CC(CN1CCN(c2ncccn2)CC1)NC(=O)c1cc(-c2ccccc2)nc(-c2ccccc2)c1 (configuration not stated) = < 5.00
• CCCc1nc(-c2ccc(F)cc2)oc1C(=O)N[C@H](C)CN1CCN(c2ccccn2)CC1 = < 5.00
• Cc1nc(-c2ccccc2)oc1C(=O)NC(C)CN1CCN(c2ncccn2)CC1 (configuration not stated) = < 5.00
• CCCc1nc(-c2ccc(F)cc2)oc1C(=O)N[C@@H](C)CN1CCN(c2ncccn2)CC1 = < 5.00
• CC(CN1CCN(c2ncccn2)CC1)NC(=O)c1cccc(-c2ccc(F)cc2)c1 (configuration not stated) = < 5.00
• CC(CN1CCN(c2ncccn2)CC1)NC(=O)c1cn(-c2ccccc2)nc1-c1ccccc1 (configuration not stated) = < 5.00
• CC(CN1CCN(c2ncccn2)CC1)NC(=O)c1cc(-c2ccccc2)n(-c2ccccc2)n1 (configuration not stated) = < 5.00
• Cc1c(C(=O)NC(C)CN2CCN(c3ncccn3)CC2)c(-c2ccccc2)nn1-c1ccccc1 (configuration not stated) = < 5.00
• CCCc1nc(-c2ccc(F)cc2)oc1C(=O)NC(C)CN1CCN(C(C)=S)CC1 (racemic) = < 5.00
• CCCc1nc(-c2ccc(F)cc2)oc1C(=O)N[C@H](C)CN1CCN(c2ccncn2)CC1 = < 5.00

Input line: For CC(CN1CCN(c2ncccn2)CC1)NC(=O)c1cc(-c2ccccc2)nn1-c1ccccc1 (configuration not stated) , write its pIC50.
Output line: < 5.00

Input line: For "CCCc1nc(-c2ccc(F)cc2)oc1C(=O)N[C@H](C)CN1CCN(C(=O)NC)CC1" , write its pIC50.
Output line: < 5.00

---

# Measured target: P2X purinoceptor 3 (Rattus norvegicus, UniProt P49654)
# Sequence (P49654 whole entry): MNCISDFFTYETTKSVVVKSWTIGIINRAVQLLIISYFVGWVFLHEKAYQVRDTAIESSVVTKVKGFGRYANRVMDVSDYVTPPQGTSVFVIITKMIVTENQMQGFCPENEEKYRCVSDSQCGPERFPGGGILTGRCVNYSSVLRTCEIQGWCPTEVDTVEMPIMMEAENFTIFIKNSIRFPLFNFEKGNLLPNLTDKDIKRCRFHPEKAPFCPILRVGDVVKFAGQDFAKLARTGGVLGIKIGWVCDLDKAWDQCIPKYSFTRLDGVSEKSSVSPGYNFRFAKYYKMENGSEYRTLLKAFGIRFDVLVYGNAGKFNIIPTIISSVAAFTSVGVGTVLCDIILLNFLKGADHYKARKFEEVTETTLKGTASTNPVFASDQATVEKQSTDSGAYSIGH
# Assay method text: Antagonist activity at rat P2X3 receptor expressed in CHO cells
Measurement kind: pIC50
Reminder that pIC50 means the negative base-10 logarithm of the concentration expressed in mol/L.

• CCCc1nc(-c2ccccc2)oc1C(=O)NC(C)CN1CCN(c2ncccn2)CC1 (configuration not stated) = 6.60
• CC(CN1CCN(c2ncccn2)CC1)NC(=O)c1cc(-c2ccccc2)oc1-c1ccccc1 (configuration not stated) = 5.70
• CCCc1nc(-c2ccc(F)cc2)oc1C(=O)N[C@H](C)CN1CCN(c2ncccn2)CC1 = 7.30

# context switch: different molecule, same pIC50
Input line: For CC(CN1CCN(c2ncccn2)CC1)NC(=O)c1cc(-c2ccccc2)nn1-c1ccccc1 (configuration not stated) , write its pIC50.
Output line: 6.00
